Measured values drawn from patent US8367690B2 for this set.

# Target or system: GST-tagged human Aurora B(AurB)/His-tagged human INCENP complex proteins (Homo sapiens, UniProt Q96GD4)
# Construct: GST
# Sequence (Q96GD4 whole entry): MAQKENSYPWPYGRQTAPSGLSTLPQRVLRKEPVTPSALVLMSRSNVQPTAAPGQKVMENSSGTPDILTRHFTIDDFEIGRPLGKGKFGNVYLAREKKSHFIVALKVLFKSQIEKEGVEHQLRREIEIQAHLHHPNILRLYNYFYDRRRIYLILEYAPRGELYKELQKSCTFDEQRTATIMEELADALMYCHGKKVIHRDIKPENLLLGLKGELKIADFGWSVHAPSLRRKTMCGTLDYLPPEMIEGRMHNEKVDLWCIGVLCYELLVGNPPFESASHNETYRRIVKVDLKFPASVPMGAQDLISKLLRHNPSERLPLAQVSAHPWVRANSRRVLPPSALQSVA
# Sequence (Q9NQS7 803-916 partner limits assumed): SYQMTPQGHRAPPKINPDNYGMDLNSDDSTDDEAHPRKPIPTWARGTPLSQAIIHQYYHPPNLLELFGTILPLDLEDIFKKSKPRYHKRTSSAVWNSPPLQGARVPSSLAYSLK
# Assay notes: Aurora B inhibitory activity, Method A (IMAP assay development kit)
# Setup conditions: 40 μM ATP, 100 nM substrate, 25° C. for 45 minutes
Structures can show the parent of a compound that is named as a salt.
Measure: IC50 (nM)

Some solved cases for reference:
* Cc1cc(Nc2cc[nH]n2)nc(N2C[C@H](C(=O)O)C[C@H](C3CCCCC3)C2)n1 (relative stereo) [Example 13, trifluoroacetate] | 6620
* Cc1cc(Nc2cc(C3CC3)[nH]n2)nc(N2C[C@H](C(=O)O)C[C@H](C3CCCCC3)C2)n1 (stereo in doubt) [Example 21, trifluoroacetate] | 275
* Cc1cc(Nc2cc[nH]n2)nc(N2C[C@@H](NC(=O)OC(C)(C)C)C[C@@H](C(=O)O)C2)n1 (relative stereo) [Example 8] | 7390
* Cc1cc(Nc2cc[nH]n2)nc(N2C[C@H](C(=O)O)C[C@H](c3ccccc3)C2)n1 (relative stereo) [Example 10, trifluoroacetate] | 7910

a. Cc1cc(Nc2cc(C3CC3)[nH]n2)nc(N2C[C@@H](C(=O)O)C[C@@H](C3CCCCC3)C2)n1 (stereo in doubt) [Example 20, trifluoroacetate]
b. Cc1cc(Nc2cc(C3CC3)[nH]n2)nc(N2C[C@H](CC(=O)O)C[C@H](C3CCCCC3)C2)n1 (stereo in doubt) [Example 23]
## Input Would you let me know which has the greater IC50 value, a or b ? Mark your selection by writing its label.
## Output b
(b: 2680 nM, a: 1150 nM)
